Listing: self-cleavage of selected variants
B1: LINE1-mini (parent)
chain: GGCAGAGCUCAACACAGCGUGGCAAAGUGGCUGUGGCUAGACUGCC

- Variants of: B1
- test.protocol: self-cleavage, relative activity (ratio to wild type); higher = more cleavage; in vitro, sequencing; the parent is a self-cleaving ribozyme

variant.annotation: G5U C37G
self-cleavage: 0.07

Recorded self-cleavage for A4U G36C , please?
0.07

Recorded self-cleavage for A41C U43G , please?
0.06

Recorded self-cleavage for G17U U34C , please?
0.05

Recorded self-cleavage for C8G C37G , please?
0.09

Recorded self-cleavage for C8U C10A , please?
0.03

Recorded self-cleavage for A12C C31A , please?
0.03

Recorded self-cleavage for U20C G21C , please?
0.39

Recorded self-cleavage for C8A U34G , please?
0.34

Recorded self-cleavage for G36C , please?
0.1
